These entries and their values trace back to patent US20260151494A1.

Biological target: T1, human CD71 extracellular domain (human, UniProt P02786 89-760)
T1 construct: also called hCD71; human CD71-ECD
T1 sequence (P02786 89-760): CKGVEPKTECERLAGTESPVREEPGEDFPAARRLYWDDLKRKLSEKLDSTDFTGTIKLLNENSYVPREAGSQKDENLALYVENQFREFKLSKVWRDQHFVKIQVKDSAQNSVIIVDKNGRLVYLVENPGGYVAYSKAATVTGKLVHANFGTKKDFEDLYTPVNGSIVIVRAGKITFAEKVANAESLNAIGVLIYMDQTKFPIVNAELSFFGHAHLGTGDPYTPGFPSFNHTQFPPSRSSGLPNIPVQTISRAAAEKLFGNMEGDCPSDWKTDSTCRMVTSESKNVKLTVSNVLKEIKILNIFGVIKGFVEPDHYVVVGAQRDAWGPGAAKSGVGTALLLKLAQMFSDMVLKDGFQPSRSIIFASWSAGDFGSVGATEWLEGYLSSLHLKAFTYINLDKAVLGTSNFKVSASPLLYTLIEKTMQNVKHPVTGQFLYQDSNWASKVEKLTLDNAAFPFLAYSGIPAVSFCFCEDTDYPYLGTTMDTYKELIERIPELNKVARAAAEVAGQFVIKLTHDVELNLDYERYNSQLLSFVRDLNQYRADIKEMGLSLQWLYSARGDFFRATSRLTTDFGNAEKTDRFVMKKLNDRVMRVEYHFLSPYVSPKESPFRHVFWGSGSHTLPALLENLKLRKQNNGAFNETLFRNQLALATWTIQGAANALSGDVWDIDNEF
Assay: primary ELISA, signal ratio to HSA
metricName: hCD71:HSA

binder="CD71-binding FN3 domain of SEQ ID NO: 162 (designed binder) MSLPAPKNLVVSRVTEDSARLSWTALDAAFDSFEISYWEHTFNGEAIILFVPGSERSYDLTGLKPGTEYYVTIGGVKGGAWSPPLWAEFTT" metricname=hCD71:HSA assayresult=240
binder="CD71-binding FN3 domain of SEQ ID NO: 183 (designed binder) MSLPAPKNLVISRVTEDSARLSWTAPDAAFDSFEIVYAEPVRFGEAIVLTVPGSERSYDLTGLKPGTEYWVQIGGVKGGEWSSPLSAIFTT" metricname=hCD71:HSA assayresult=108
binder="CD71-binding FN3 domain of SEQ ID NO: 170 (designed binder) MSLPAPKNLVVSRVTEDSARLSWTAPDAAFDSFEIGYFENLYLGEAIVLTVPGSERSYDLTGLKPGTEYWVQIGGVKGGNWSTPLSAIFTT" metricname=hCD71:HSA assayresult=127
binder="CD71-binding FN3 domain of SEQ ID NO: 207 (designed binder) MSLPAPKNLVVSRVTEDSARLSWTAPDAAFDSFEIGYWENAYKGEAIVLTVPGSERSYDLTGLKPGTEYVVFIGGVKGGVWSVPLSAISTT" metricname=hCD71:HSA assayresult=22
